Please provide measured IC50 for the entries that follow.
Biological target: KDM4C (Homo sapiens, UniProt Q9H3R0)
Construct: Full length of KDM5B and KDM4C protein were purchased from Active Motif; purchased Active Motif 31858
Sequence (Q9H3R0 1-1056): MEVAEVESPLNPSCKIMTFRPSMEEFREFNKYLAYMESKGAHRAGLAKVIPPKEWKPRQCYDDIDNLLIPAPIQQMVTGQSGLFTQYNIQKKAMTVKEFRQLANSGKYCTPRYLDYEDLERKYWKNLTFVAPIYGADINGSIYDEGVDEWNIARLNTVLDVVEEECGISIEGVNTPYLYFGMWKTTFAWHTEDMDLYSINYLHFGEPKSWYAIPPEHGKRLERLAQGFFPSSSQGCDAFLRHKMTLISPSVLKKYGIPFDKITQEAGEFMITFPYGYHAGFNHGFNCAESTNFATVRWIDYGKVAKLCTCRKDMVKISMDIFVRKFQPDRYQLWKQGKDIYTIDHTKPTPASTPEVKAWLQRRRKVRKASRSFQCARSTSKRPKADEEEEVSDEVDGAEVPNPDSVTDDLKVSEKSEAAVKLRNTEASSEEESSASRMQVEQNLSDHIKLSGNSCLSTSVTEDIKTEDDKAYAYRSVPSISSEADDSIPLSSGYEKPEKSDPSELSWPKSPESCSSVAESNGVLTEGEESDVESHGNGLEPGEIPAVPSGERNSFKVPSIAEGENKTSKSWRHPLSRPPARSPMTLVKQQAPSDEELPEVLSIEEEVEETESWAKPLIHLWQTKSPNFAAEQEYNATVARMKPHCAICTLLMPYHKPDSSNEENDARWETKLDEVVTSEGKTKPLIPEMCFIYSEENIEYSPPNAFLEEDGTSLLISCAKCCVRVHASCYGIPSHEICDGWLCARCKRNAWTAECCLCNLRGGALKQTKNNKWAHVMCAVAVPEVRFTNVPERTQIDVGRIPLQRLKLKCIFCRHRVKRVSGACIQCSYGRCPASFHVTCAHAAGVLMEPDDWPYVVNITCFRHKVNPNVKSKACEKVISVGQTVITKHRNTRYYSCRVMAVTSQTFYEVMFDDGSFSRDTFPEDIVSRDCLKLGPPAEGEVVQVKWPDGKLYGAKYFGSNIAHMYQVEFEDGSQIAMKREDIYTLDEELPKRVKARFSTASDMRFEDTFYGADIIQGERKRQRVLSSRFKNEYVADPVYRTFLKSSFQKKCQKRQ
Test: KDM4C AlphaScreen assay
Assay type: biochemical
Conditions: AlphaScreen; full length KDM4C 0.2 nM; biotinylated H3K9Me3 peptide 3 nM; 30 minutes at room temperature
Give bare numbers, in nM.

Consider the reported IC50 for these compounds:
CC(C)c1c(O)nc(-n2ccnc2)nc1-c1cnn(CC(=O)NCCN)c1	340
CC(C)c1c(O)nc(-n2ccnc2-c2ncccn2)nc1Cl	8260
CC(C)c1c(O)nc(-n2ccnc2)nc1-c1ccc(CO)cc1	1220
CC(C)c1c(O)nc(-c2cncs2)nc1-c1cnn(C)c1	15300
CC(C)c1c(O)nc(-n2ccnc2)nc1OCCN1CCN(C)CC1	1270

Hey, can you go through the list below and give me IC50 for every item?
1. CC(C)c1c(O)nc(-n2ccnc2)nc1-c1cnn(C)c1
2. CC(C)c1c(O)nc(-n2ccnc2)nc1-c1cnn(Cc2cccnc2)c1
3. CC(C)c1c(O)nc(-n2ccnc2)nc1-c1cnn(CC(=O)N2CCCC(O)C2)c1 (centres unmarked)

A.
1340
1140
1750

// data source = patent US20190135793A1
